Target: T1, IL-2 receptor βγ complex (human, UniProt P14784 27-551; P31785 23-369)
T1 sequence (looked up) 1: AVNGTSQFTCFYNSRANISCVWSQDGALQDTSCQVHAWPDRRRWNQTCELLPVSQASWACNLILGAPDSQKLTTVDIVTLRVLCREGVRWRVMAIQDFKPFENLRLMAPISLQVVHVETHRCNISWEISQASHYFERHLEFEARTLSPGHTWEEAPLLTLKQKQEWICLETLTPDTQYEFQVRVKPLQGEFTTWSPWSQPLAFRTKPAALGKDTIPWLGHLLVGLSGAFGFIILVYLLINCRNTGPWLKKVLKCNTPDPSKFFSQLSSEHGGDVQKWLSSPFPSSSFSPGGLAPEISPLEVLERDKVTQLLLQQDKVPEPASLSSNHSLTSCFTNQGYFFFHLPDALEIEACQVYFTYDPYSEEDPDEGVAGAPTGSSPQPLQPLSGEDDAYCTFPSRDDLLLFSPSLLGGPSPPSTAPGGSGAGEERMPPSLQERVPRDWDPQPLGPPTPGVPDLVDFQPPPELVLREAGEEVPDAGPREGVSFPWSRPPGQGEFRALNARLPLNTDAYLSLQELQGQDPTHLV
T1 sequence (looked up) 2: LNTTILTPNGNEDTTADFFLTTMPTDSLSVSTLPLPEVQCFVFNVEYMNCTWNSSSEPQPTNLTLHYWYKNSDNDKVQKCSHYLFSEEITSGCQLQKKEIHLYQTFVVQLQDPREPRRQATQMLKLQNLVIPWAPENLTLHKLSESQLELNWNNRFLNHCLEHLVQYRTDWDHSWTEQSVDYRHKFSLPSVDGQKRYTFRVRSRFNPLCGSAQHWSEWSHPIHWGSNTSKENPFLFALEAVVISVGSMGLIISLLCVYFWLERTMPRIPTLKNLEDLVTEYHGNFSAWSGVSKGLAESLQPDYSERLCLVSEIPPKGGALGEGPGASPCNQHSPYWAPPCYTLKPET
Experiment: cell-based or functional assay
Primed or numbered codes have the meaning given here. [ ]: non-standard residue; d: D form. 8x polyethylene glycol‑amino = O-(8x polyethylene glycol-amino)-tyrosine, SITE 45; 9x polyethylene glycol‑azido = O-(9x polyethylene glycol-azido)-tyrosine, SITE 42; Ygp″ = O-(8x polyethylene glycol-amino)-tyrosine; Yn3″ = O-(9x polyethylene glycol-azido)-tyrosine; hSer = N[C@@H](CCO)C(=O)O; Nle = CCCC[C@H](N)C(=O)O
Catalogue of binders with associated Average EC50, pSTAT5 Assay in NK cells
# output: number + unit

BINDER: CMP-328, uPa cleaved molecule (ligand, ends and bridges not checked; also: after uPa cleavage, remnants of the Lys9–Glu23 peptide linker not given here) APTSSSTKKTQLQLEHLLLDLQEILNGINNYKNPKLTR[Nle]L[hSer][Yn3″]KF[Ygp″][Nle]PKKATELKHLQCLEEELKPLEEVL[hSer]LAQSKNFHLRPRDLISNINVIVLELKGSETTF[hSer]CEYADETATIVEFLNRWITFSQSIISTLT
Average EC50, pSTAT5 Assay in NK cells: 2.96 nM

Any idea what Average EC50, pSTAT5 Assay in NK cells was measured for CMP-330, MMP2 cleaved molecule (ligand, not fully specified; also: K9 and E23 side chains attached to another sequence, MMP2-cleaved product, remnants not given here) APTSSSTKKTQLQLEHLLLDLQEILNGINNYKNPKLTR[Nle]L[hSer]Y(9x polyethylene glycol‑azido)KFY(8x polyethylene glycol‑amino)[Nle]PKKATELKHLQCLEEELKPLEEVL[hSer]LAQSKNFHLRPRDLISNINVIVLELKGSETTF[hSer]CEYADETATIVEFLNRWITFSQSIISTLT ?
6.12 nM
